experimentalSystem: Pancreatic elastase (Sus scrofa) (UniProt P08419+P00772)
testDescription: Inactivation of porcine pancreatic elastase (PPE) expressed as rate constant.
Format: functional
Binary call on second-order inactivation rate constant (kobs/[I]): true (1) from 3000 M⁻¹ s⁻¹ upward, false (0) beneath that.

Example entries and their recorded answers appear below.
COC(=O)CCCC(=O)Nc1ccc2c(Cl)c(OC)oc(=O)c2c1; false (0)
COC(=O)Nc1cccc(C(=O)Nc2ccc3c(Cl)c(OC)oc(=O)c3c2)c1; false (0)

Continue with the compound presented below.
## Input Entry COc1oc(=O)c2cc(NC(=O)c3ccccc3C(=O)O)ccc2c1Cl : is its second-order inactivation rate constant (kobs/[I]) no less than 3000 M⁻¹ s⁻¹?
## Output false (0)

###

Below, each entry is listed alongside its reported second-order inactivation rate constant (kobs/[I]).
experimentalSystem: Pancreatic elastase (Sus scrofa) (UniProt P08419+P00772)
testDescription: Inactivation of porcine pancreatic elastase (PPE) expressed as rate constant.
Type: functional
Kindly answer with a numeric value in M⁻¹ s⁻¹, unit omitted.

COc1oc(=O)c2cc(NC(=O)C(CC(C)C)NS(=O)(=O)c3ccc(C)cc3)ccc2c1Cl (stereo not drawn); 6300
COc1oc(=O)c2cc(NC(=O)C(Cc3ccccc3)NS(=O)(=O)c3ccc(C)cc3)ccc2c1Cl (stereo not drawn); 6500

Consider the additional compound presented here.
## Input Name the reported second-order inactivation rate constant (kobs/[I]) value associated with the compound COc1oc(=O)c2cc(NC(=O)C(c3ccccc3)c3ccccc3)ccc2c1Cl
## Output 20

###

experimentalSystem: Pancreatic elastase (Sus scrofa) (UniProt P08419+P00772)
testDescription: Inactivation of porcine pancreatic elastase (PPE) expressed as rate constant.
Assay type: functional
quantityName: second-order inactivation rate constant (kobs/[I])
Provide a numeric answer, followed by its unit.

These solved cases illustrate the format of a correct answer.
COc1oc(=O)c2cc(NC(=O)OCC3c4ccccc4-c4ccccc43)ccc2c1Cl; 20 M⁻¹ s⁻¹
COc1oc(=O)c2cc(NC(=O)Nc3ccccc3)ccc2c1Cl; 7300 M⁻¹ s⁻¹

## Input Name the reported second-order inactivation rate constant (kobs/[I]) value associated with the compound COc1oc(=O)c2cc(NC(=O)Cc3ccccc3)ccc2c1Cl
## Output 2000 M⁻¹ s⁻¹

###

experimentalSystem: Neutrophil elastase (Homo sapiens) (UniProt P08246)
Sequence (P08246 whole entry): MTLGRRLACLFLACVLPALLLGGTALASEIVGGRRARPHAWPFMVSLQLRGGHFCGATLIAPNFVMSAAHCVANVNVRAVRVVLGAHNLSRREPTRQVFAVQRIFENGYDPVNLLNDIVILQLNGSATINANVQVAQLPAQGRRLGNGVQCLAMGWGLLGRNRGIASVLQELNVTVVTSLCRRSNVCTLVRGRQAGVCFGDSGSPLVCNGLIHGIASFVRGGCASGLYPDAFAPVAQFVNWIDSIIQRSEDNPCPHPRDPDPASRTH
testDescription: Inactivation of human leukocyte (neutrophil) elastase (HLE)(HNE) as rate constant
Type: functional
quantityName: log10 of kobs/[I] (second-order inactivation rate constant) (log10 of the value in M⁻¹ s⁻¹)
Hi team, quick reminder: these entries are log10 of kobs/[I] (second-order inactivation rate constant) (M⁻¹ s⁻¹).

These solved cases illustrate the format of a correct answer.
COc1oc(=O)c2cc(NC(=O)Nc3ccccc3)ccc2c1Cl; 4.69
COc1oc(=O)c2cc(NC(=O)CCC(=O)O)ccc2c1Cl; 3.98
CCOC(=O)Nc1ccc2c(Cl)c(OC)oc(=O)c2c1; 4.67
COc1oc(=O)c2cc(NC(=O)CC(CC(=O)O)c3ccccc3)ccc2c1Cl (centres undefined); 4.82
COc1oc(=O)c2cc(NC(C)=O)ccc2c1Cl; 4.48

## Input Name the reported log10 of kobs/[I] (second-order inactivation rate constant) value associated with the compound COc1oc(=O)c2cc(NC(=O)c3ccccc3C(=O)O)ccc2c1Cl
## Output 4.72

## Input Name the reported log10 of kobs/[I] (second-order inactivation rate constant) value associated with the compound COc1oc(=O)c2cc(NC(=O)C(Cc3ccccc3)NS(=O)(=O)c3ccc(C)cc3)ccc2c1Cl (centres undefined)
## Output 5.30

## Input Name the reported log10 of kobs/[I] (second-order inactivation rate constant) value associated with the compound COc1oc(=O)c2cc(NC(=O)CCCC(=O)O)ccc2c1Cl
## Output 4.71

## Input Name the reported log10 of kobs/[I] (second-order inactivation rate constant) value associated with the compound COc1oc(=O)c2cc(NC(=O)C(c3ccccc3)c3ccccc3)ccc2c1Cl
## Output 4.72
